Tested on: Saccharomyces cerevisiae;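 also: PSI is a weighted mean of sequencing reads over stability bins, variants kept only with over 10 reads, mCherry proximal and sfGFP distal, peptide attached via GGGS linker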
Test: protein stability index of tFT-peptide fusion (C-terminal peptide) (PSI (0-1 scale)); higher = more stable (slower turnover)
Conditions: genetic background: wild type; temperature: 30 C
Assignment: determine reported protein stability index for the given sequences.
Numbers only.

Example cases with answers are listed next.
>>> measured_value("SPAARPLFRTIS")
0.61
>>> measured_value("FLFRSFACALPS")
0.522
>>> measured_value("VWLFSWSVVGGT")
0.433

Can you give me protein stability index for all of these, one by one?
1. SSPPTPPFPPPP
2. NRDSRTLGSTVG
3. LARLFQLLERPW
4. EKKKKKKKKKKK
5. TCPLSFFLSFLF
6. YKRRYTKNQIRK
7. GLGRRPGVGGVR
8. QKGSGITPSPAR

0.704
0.674
0.688
0.772
0.565
0.666
0.71
0.757

Can you give me protein stability index for all of these, one by one?
1. WVVVKITAHTAT
2. ALWQADTRSVNN
3. SRVSEFVIPLGR
4. TQYINTAHKELK
5. LFSFCQGCISFC

1. 0.326
2. 0.64
3. 0.719
4. 0.668
5. 0.715

Can you give me protein stability index for all of these, one by one?
1. GVTYEDFWGYCG
2. LSPTRPATRSPP
3. ITNKKKIKDKQT
4. RTSPRMAPLRTH
5. KTKKKRKQKGKQ
6. WVGEVSMGVRAG
7. SLPPPPSQLRPL
8. SYRNRTEHPKLP

0.797
0.683
0.593
0.713
0.684
0.666
0.726
0.74
